target: EF2K (Homo sapiens); construct: host or cells: LN-229 glioblastoma cell lysate; experiment: Biochemical EF2K lysate-based kinase assay (AlphaLISA p-eEF2 Thr56); settings: LN-229 cell lysates, 10 mM ATP, pH 6.6; pIC50 = -log IC50 (M); read-out: eEF2K_C_alphalisa pIC50 (converted)
measuredQuantity: IC50

CC1CN2CCN1Cc1cccc(c1)Nc1cc(ccn1)-c1cnc(nc1)N1CCCC1CCNC(=O)C2 (stereo not shown) [Compound 48]; 7.94e-08 M
CC1c2cccc(c2)Nc2cc(ccn2)-c2cnc(nc2)NCCCNC(=O)C2(CC2)N2CCN1CC2 (single isomer, unassigned) [Compound 22]; ~1.05e-08 M
O=C1CN2CCN(CC2)Cc2cccc(c2)Nc2cc(ccn2)-c2ccc(nc2)NCCN1; 5.62e-06 M

# evaluate next
# input Consider the compound COCCCN1CCCN(C)C(=O)CN2CCN(CC2)Cc2cccc(c2)Nc2cc(ccn2)-c2cnc1nc2 . State its measured IC50.
# output > 3.02e-05 M

---

Recorded IC50 values for a group of compounds are listed next.
Target: EF2K (Homo sapiens, UniProt O00418)
Construct: host or cells: LN-229 glioblastoma cell lysate
Sequence (O00418 1-725): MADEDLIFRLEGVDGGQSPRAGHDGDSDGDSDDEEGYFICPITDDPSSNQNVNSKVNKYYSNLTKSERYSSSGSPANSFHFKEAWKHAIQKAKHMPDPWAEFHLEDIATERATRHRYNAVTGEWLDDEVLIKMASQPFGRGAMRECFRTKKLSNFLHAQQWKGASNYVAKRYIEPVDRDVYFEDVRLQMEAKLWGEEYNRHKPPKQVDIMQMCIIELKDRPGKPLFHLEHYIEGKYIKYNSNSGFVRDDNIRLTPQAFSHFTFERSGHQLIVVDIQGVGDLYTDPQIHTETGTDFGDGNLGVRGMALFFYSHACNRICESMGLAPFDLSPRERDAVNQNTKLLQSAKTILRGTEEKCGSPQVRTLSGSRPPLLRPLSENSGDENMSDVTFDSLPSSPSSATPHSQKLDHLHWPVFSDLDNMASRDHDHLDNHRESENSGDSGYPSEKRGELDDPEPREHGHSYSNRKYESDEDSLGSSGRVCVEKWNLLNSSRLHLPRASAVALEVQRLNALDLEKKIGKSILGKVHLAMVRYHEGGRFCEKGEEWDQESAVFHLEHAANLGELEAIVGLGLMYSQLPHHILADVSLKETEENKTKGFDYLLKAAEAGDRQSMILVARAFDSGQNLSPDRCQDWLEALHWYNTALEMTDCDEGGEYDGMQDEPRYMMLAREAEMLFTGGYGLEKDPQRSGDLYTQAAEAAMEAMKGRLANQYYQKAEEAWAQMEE
Assay: Biochemical EF2K lysate-based kinase assay (AlphaLISA p-eEF2 Thr56)
Conditions: LN-229 cell lysates, 10 mM ATP, pH 6.6; pIC50 = -log IC50 (M); read-out: eEF2K_C_alphalisa pIC50 (converted)

O=C1CN2CCN(CC2)Cc2cccc(c2)Nc2cc(ccn2)-c2cnc(nc2)NC(C(=O)O)CCN1 (stereo not shown) [Compound 120]; 6.31e-07 M
CC1CN2CCN1Cc1cccc(c1)Nc1cc(ccn1)-c1ccc(nc1)NCCCNC(=O)C2 (stereo not shown); 3.31e-07 M
CC1NCCNC(=O)CN2CCN(CC2)Cc2cccc(c2)Nc2cc(ccn2)-c2cnc1nc2 (stereo not shown) [Compound 134]; 1.12e-05 M

# evaluate next
# input Consider the compound O=C1CN2CC3CCC(C2)N3Cc2cccc(c2)Nc2cc(ccn2)-c2cnc(nc2)NCCCN1 . State its measured IC50.
# output 1.05e-07 M

---

Recorded IC50 values for a group of compounds are listed next.
molecular target: eEF2K (Homo sapiens, UniProt O00418); construct: in the immortalized epithelial breast cell lines, MCF10A; host or cells: MCF10A immortalized breast epithelial cells; test: EF2K cell-based assay (P-EF2 AlphaLISA, 2-deoxyglucose stimulated MCF10A cells); conditions: 2.5 mM 2-deoxyglucose 4 h, phosphorylation of EF2 at Thr 56, pIC50 = -log IC50 (M), read-out: eEF2K_C_PThr56 pIC50 (converted)

# annotated cases, reported IC50 shown
O=C1CN2CCN(Cc3cccc(c3)Nc3cc(ccn3)-c3cnc(nc3)NCCCN1)C1(CC1)C2 [Compound 27]; ~1.23e-06 M
O=C1NCCCNc2ncc(cn2)-c2ccnc(c2)Nc2cccc(c2)CN2CCN(CC2)C1CO (single isomer, unassigned) [Compound 2]; ~2.51e-06 M

# evaluate next
# input Consider the compound CC1c2cccc(c2)Nc2cc(ccn2)-c2cnc(nc2)NCCCNC(=O)C2(CC2)N2CCN1CC2 (single isomer, unassigned) [Compound 23] . State its measured IC50.
# output ~2.95e-06 M

---

Recorded IC50 values for a group of molecules are listed next.
molecular target: eEF2K (Homo sapiens); construct: in the immortalized epithelial breast cell lines, MCF10A; host or cells: MCF10A immortalized breast epithelial cells; test: EF2K cell-based assay (P-EF2 AlphaLISA, 2-deoxyglucose stimulated MCF10A cells); conditions: 2.5 mM 2-deoxyglucose 4 h, phosphorylation of EF2 at Thr 56, pIC50 = -log IC50 (M), read-out: eEF2K_C_PThr56 pIC50 (converted)

COCC1C(=O)NCCCNc2ncc(cn2)-c2ccnc(c2)Nc2cccc(c2)CN2CCN1CC2 (single isomer, unassigned) [Compound 6]; 1.12e-06 M
O=C1CN2CCC(C2)Oc2cccc(c2)Nc2cc(ccn2)-c2cnc(nc2)NCCCN1 (stereo not drawn) [Compound 93]; 6.31e-07 M
CC1c2cccc(c2)Nc2cc(ccn2)-c2cnc(nc2)N2CC(O)CC2CCNC(=O)C2(CC2)N2CCN1CC2 (single isomer, unassigned) [Compound 66]; 9.12e-07 M
CC1NCCNC(=O)CN2CCN(CC2)Cc2cccc(c2)Nc2cc(ccn2)-c2cnc1nc2 (stereo not drawn) [Compound 133]; ~1e-05 M
O=C1NCCC2CC(O)CN2c2ncc(cn2)-c2ccnc(c2)Nc2cccc(c2F)OC2CCN(CC2)C12CC2 (stereo not drawn) [Compound 96]; 8.13e-08 M
O=C1CN2CCN(Cc3cccc(c3)Nc3cc(ccn3)-c3cnc(nc3)NCCCN1)C(CO)C2 (single isomer, unassigned) [Compound 8]; 2.57e-06 M
N#CC1CC2CCNC(=O)CN3CCN(CC3)Cc3cccc(c3)Nc3cc(ccn3)-c3cnc(nc3)N2C1 (stereo not drawn) [Compound 78]; 2.24e-06 M
O=C1CN2C3CCC2CN(Cc2cccc(c2)Nc2cc(ccn2)-c2cnc(nc2)NCCCN1)C3 [Compound 42]; ~2.29e-06 M

# input Consider the molecule NS(=O)(=O)NC1CC2CCNC(=O)CN3CCN(CC3)Cc3cccc(c3)Nc3cc(ccn3)-c3cnc(nc3)N2C1 (stereo not drawn) [Compound 86] . State its measured IC50.
# output > 1e-05 M

# input Consider the molecule O=C1CN2CCN(CC2)Cc2cccc(c2)Nc2cc(ccn2)-c2cnc(nc2)CN(C(=O)C2CC2)CCN1 [Compound 131] . State its measured IC50.
# output 2.51e-06 M

# input Consider the molecule O=C1CN2CCN(CC2)Cc2cccc(c2)Nc2cc(ccn2)-c2cnc(nc2)CN(CC2CC2)CCN1 [Compound 128] . State its measured IC50.
# output 4.17e-07 M

# input Consider the molecule CN1CCCN(CCCO)c2ncc(cn2)-c2ccnc(c2)Nc2cccc(c2)CN2CCN(CC2)CC1=O [Compound 16] . State its measured IC50.
# output > 3.02e-05 M

# input Consider the molecule O=C1CN2CCN(Cc3cccc(c3)Nc3cc(ccn3)-c3cnc(nc3)NCCCN1)CC21CC1 [Compound 28] . State its measured IC50.
# output > 1e-05 M

# input Consider the molecule O=C1CN2CCN(CC2)Cc2cccc(c2)Nc2cc(ccn2)-c2ccc(nc2)NCCN1 [Compound 70] . State its measured IC50.
# output > 3.02e-05 M

# input Consider the molecule CC1CN2CCN1Cc1cccc(c1)Nc1cc(ccn1)-c1cnc(nc1)N1CC(O)CC1CCNC(=O)C2 (stereo not drawn) [Compound 61] . State its measured IC50.
# output 4.27e-07 M

---

Recorded IC50 values for a group of compounds are listed next.
target: eEF2K (Homo sapiens, UniProt O00418); construct: in the immortalized epithelial breast cell lines, MCF10A; host or cells: MCF10A immortalized breast epithelial cells; assay: EF2K cell-based assay (P-EF2 AlphaLISA, 2-deoxyglucose stimulated MCF10A cells); settings: 2.5 mM 2-deoxyglucose 4 h, phosphorylation of EF2 at Thr 56, pIC50 = -log IC50 (M), read-out: eEF2K_C_PThr56 pIC50 (converted)
Note: unit M is implicit; provide only the numeric part.

# annotated cases, reported IC50 shown
NC1CC2CCNC(=O)CN3CCN(CC3)Cc3cccc(c3)Nc3cc(ccn3)-c3cnc(nc3)N2C1 (stereo not shown); 1.02e-06
CC1(C)CN2CCN1Cc1cccc(c1)Nc1cc(ccn1)-c1cnc(nc1)NCCCNC(=O)C2; 7.08e-07

# input Consider the compound CNC(=O)C1CCNC(=O)CN2CCN(CC2)Cc2cccc(c2)Nc2cc(ccn2)-c2cnc(nc2)N1 (stereo not shown) [Compound 122] . State its measured IC50.
# output 1.41e-05

Reference for the values: patent US20170022201A1
